Target: Multidrug efflux pump subunit AcrB (Escherichia coli (strain B / BL21-DE3), UniProt P31224)
Sequence (P31224 whole entry): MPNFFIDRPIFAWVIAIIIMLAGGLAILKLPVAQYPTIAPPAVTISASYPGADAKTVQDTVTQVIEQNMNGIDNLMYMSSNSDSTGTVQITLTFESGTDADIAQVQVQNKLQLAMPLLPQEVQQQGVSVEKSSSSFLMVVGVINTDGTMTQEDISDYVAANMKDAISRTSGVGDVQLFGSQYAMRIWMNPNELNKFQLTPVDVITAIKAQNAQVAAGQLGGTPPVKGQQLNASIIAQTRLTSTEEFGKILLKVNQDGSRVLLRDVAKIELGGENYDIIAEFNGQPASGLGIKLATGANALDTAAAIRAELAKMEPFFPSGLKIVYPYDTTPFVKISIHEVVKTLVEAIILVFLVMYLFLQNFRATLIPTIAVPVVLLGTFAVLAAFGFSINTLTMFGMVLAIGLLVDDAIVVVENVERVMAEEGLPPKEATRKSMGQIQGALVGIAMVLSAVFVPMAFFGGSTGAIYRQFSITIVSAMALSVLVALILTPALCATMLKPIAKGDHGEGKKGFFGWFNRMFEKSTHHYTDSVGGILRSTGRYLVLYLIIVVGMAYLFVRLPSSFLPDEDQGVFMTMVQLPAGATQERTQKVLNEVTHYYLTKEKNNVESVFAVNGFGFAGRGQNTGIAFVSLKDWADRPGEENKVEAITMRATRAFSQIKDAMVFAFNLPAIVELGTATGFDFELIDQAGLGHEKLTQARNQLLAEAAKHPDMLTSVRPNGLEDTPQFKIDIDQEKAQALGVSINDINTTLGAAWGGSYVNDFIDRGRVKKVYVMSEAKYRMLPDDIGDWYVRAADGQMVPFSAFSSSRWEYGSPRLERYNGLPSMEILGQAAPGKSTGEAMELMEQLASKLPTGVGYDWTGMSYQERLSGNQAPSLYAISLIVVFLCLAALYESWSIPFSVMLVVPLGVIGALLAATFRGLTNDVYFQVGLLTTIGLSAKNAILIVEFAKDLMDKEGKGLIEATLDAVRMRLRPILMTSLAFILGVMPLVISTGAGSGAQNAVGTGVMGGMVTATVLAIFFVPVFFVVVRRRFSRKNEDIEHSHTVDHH
Assay: Binding Assay
Details: pH 6
Where a SMILES comes first, the peptide text is derived from it. [ ]: non-standard residue; d: D form. The star is where a group is joined. ξ: configuration not given here. ξR = N=C(N)NCCCC(N)C(=O)O; βNA = c1ccc2cc(N*)ccc2c1
outcome_measure: pKd
One number for each entry, as −log10 of the molar value.

Recorded result, NC(N)=NCCCC(NC(=O)[C@@H](N)Cc1ccccc1)C(=O)Nc1ccc2ccccc2c1 (stereo partly specified) [MC-207,110] (H-Phe-[ξR]-βNA) , pKd: 3.96
